Cited source: paper PMC3608651

target: HLA-A*30:01 (Homo sapiens, UniProt P04439, D140H/D185E/E176W/F33S/G80R/H175R/K168Q/R138E/R41S); test: affinity assay (ED50); format: binding; conditions: peptide titrated 10−4 to 10−9 M
Each item that follows carries a reported Aff A*30:01 (ED50).

In the examples that follow, each entry is paired with its recorded Aff A*30:01 (ED50).
{"columns": ["substance", "result"],
 "data": [
  ["AAYHPQQFI", "2E -07 M"],
  ["AMKGDLQSS", "2E -06 M"],
  ["NFVRSSNLK", "9E -07 M"]
]}

Note: attention shifts to another entry.
Fill blank: measured Aff A*30:01 (ED50) of the substance KLVANNT RL is ____. 2E -08 M
